# tgt: UniProtKB P35439
# experiment.notes: [3H] MK-801 binding assay
# experimental.setup: rat forebrain crude synaptic membranes, 50 μM glutamate, [3H]MK-801 5 nM
Residues, ends and D or L forms follow the SMILES beside them.
readout.name: Potency (pM)
Dear colleague, please return just the value in pM, with no unit written.

Query (compound): NC(=O)[C@H](CO)NC(=O)[C@@H]1CCCN1C(=O)[C@@H]1CCCN1C(=O)[C@@H](N)CO [Compound C] (H-SPPS-NH2) ; field requested: Potency 16

Again, but for C[C@@H](O)[C@H](N)C(=O)N1CCC[C@H]1C(=O)N1CCCC1(Cc1ccccc1)C(=O)N[C@H](C(N)=O)[C@@H](C)O (stereo partly shown) 0.2

Again, but for C[C@@H](O)[C@H](N)C(=O)N1CCC[C@H]1C(=O)N1CCC[C@H]1C(=O)N[C@@H](CO)C(N)=O [Compound B] (H-TPPS-NH2) 6

Again, but for C[C@@H](O)[C@H](NC(=O)[C@@H]1CCCN1C(=O)[C@@H]1CCCN1C(=O)[C@@H](N)CO)C(N)=O [Compound A] (H-SPPT-NH2) 5
